# Tested on: LAETG (Abz-LAETGK(Dnp)-CONH2)
# method summary: In vitro sortase kinetics HPLC assay, LAETG substrate
# Type: biochemical
# run conditions: ratio of kcat/KM between 2A (LAETG) and wt (LPETG)
Recorded Specificity (relative catalytic efficiency, fold) values for a group of molecules are listed next.
metric name: Specificity (relative catalytic efficiency, fold)

molecule	obs value
eSrtA(2A-9): P94R, S102C, A104H, E105D, K138P, K152I, N160K, K162H, T164N, D165A, K173E, I182V, K190E, T196S (protein) QAKPQIPKDKSKVAGYIEIPDADIKEPVYPGPATREQLNRGVCFHDENESLDDQNISIAGHTFIDRPNYQFTNLKAAKPGSMVYFKVGNETRIYKMTSIRKVHPNAVEVLDEQEGKDKQLTLVTCDDYNEETGVWESRKIFVATEVK	509.8
eSrtA(2A-4): 5mut + A104H K162R V168I I182V (protein) QAKPQIPKDKSKVAGYIEIPDADIKEPVYPGPATREQLNRGVSFHEENESLDDQNISIAGHTFIDRPNYQFTNLKAAKKGSMVYFKVGNETRKYKMTSIRNVRPTAVEILDEQKGKDKQLTLVTCDDYNEETGVWETRKIFVATEVK	55.11
eSrtA(2A-6): round 6 consensus variant targeting LAETG; kinetics close to 2A.6A (protein) QAKPQIPKDKSKVAGYIEIPDADIKEPVYPGPATREQLNRGVSFHEENESLDDQNISIAGHTFIDRPNYQFTNLKAAKVGSMVYFKVGNETRKYKMTSIRNVRPTAVEVLDEQKGKDKQLTLVTCDDYNEETGVWETRKIFVATEVK	82.4
eSrtA(2A-3.5) (protein) QAKPQIPKDKSKVAGYIEIPDADIKEPVYPGPATREQLNRGVSFAEENESLDDQNISIAGHTFIDRPNYQFTNLKAAKKGSMVYFKVGNETRKYKMTSIRNVRPTAVEILDEQKGKDKQLTLFTCDDYNEETGVWETRKIFVATEVK	2.252
eSrtA(2A-3): round 3 LAETG clone: eSrtA + K84R F122S D124G K134R K145E K162R V168I K177R I182F (protein) QAKPQIPKDKSKVAGYIEIPDADIREPVYPGPATREQLNRGVSFAEENESLDDQNISIAGHTSIGRPNYQFTNLRAAKKGSMVYFEVGNETRKYKMTSIRNVRPTAVEILDEQKGKDRQLTLFTCDDYNEETGVWETRKIFVATEVK	1.436
